# measurement_target: MMP-13 (Homo sapiens, UniProt P45452)
# Construct: made in house; host or cells: baculovirus / insect cells
# test_protocol: In vitro MMP inhibition, Ki determination (fluorogenic substrate II)
# Type: biochemical
# test_parameters: value outside parentheses; read-out: MMP-13 Ki
Would you mind telling me the reported Ki of each entry?
Number in nM, nothing else.

Data request: What Ki value was documented for this molecule, `CCCC#Cc1cnc(N2CCN(S(=O)(=O)C3(C(=O)NO)CCOCC3)CC2)s1` ?
Data returned: 0.28

Data request: What Ki value was documented for this molecule, `O=C(NO)C1(S(=O)(=O)N2CCC(c3ccc(-c4ccccn4)cn3)CC2)CCOCC1` ?
Data returned: 22.3

Data request: What Ki value was documented for this molecule, `CCCCc1ccc(C2CCN(S(=O)(=O)C3(C(=O)NO)CCN(CC)CC3)CC2)nc1` ?
Data returned: 2.19

Data request: What Ki value was documented for this molecule, `O=C(NO)C1(S(=O)(=O)N2CCC(c3ccc(-c4cccnc4)cn3)CC2)CCOCC1` ?
Data returned: 6.72

Data request: What Ki value was documented for this molecule, `O=C(NO)C1(S(=O)(=O)N2CCC(c3ccc(OCC(F)(F)F)cc3)CC2)CCOCC1` ?
Data returned: 1.2

Data request: What Ki value was documented for this molecule, `CCCCc1ccc(-c2cnc(N3CCN(S(=O)(=O)C4(C(=O)NO)CCOCC4)CC3)s2)cc1` ?
Data returned: 0.167

Data request: What Ki value was documented for this molecule, `O=C(NO)C1(S(=O)(=O)N2CCC(c3ccc(-c4ccccc4)cn3)CC2)CCOCC1` ?
Data returned: 4.23

Data request: What Ki value was documented for this molecule, `O=C(NO)C1(S(=O)(=O)N2CCN(c3ncc(-c4ccc5c(c4)OCO5)s3)CC2)CCOCC1` ?
Data returned: 0.408

Data request: What Ki value was documented for this molecule, `CCCCOc1ccc(N2CCN(S(=O)(=O)C3(C(=O)NO)CCN(C(=O)COC)CC3)CC2)cc1` ?
Data returned: 0.311

Data request: What Ki value was documented for this molecule, `CCCCOc1cccc(N2CCN(S(=O)(=O)C3(C(=O)NO)CCOCC3)CC2)c1` ?
Data returned: 165

Data request: What Ki value was documented for this molecule, `O=C(NO)C1(S(=O)(=O)N2CCC(COCC(F)(F)C(F)(F)C(F)(F)C(F)F)CC2)CCOCC1` ?
Data returned: 48.4

Data request: What Ki value was documented for this molecule, `O=C(NO)C1(S(=O)(=O)N2CCC(COCc3ccc(SC(F)(F)F)cc3)CC2)CCOCC1` ?
Data returned: 0.18
